Target sequence: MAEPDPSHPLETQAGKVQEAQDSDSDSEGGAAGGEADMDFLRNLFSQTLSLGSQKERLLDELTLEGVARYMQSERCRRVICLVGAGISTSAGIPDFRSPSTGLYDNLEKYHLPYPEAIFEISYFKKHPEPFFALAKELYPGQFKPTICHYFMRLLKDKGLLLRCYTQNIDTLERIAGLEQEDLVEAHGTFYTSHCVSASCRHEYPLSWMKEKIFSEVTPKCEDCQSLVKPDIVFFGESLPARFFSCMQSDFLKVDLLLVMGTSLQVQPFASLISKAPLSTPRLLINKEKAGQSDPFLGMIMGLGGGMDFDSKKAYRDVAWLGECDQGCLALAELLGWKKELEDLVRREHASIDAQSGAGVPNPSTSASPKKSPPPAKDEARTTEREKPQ
Lab note - cut at 2 µM for IC50: Y if strictly below, N if not.

Examples from the recorded data:
CC(=S)NCCCC[C@H](NC(=O)OCc1ccccc1)C(=O)N[C@@H](C)C(N)=O [UKU 10363, reference compound] : Y
CCCCCNC(=S)CNC(=O)c1ccccc1Nc1cccc(OCCc2ccccc2)c1 : N
CCCCCNC(=O)CNC(=O)c1ccccc1Nc1cccc(OCCc2ccccc2)c1 : N
NC(=O)c1ccccc1Nc1cccc(OCCc2ccccc2)c1 [Compound 6, 3′-phenethyloxy-2-anilinobenzamide, reference compound] : Y

Take the compound C[C@H](NC(=O)[C@H](CCCCNC(=O)CNC(=O)c1ccccc1Nc1cccc(OCCc2ccccc2)c1)NC(=O)OCc1ccccc1)C(N)=O and say whether its IC50 is less than 2 µM.
Y

====

Target desc: SIRT3 (Homo sapiens, UniProt Q9NTG7)
Sequence (Q9NTG7 whole entry): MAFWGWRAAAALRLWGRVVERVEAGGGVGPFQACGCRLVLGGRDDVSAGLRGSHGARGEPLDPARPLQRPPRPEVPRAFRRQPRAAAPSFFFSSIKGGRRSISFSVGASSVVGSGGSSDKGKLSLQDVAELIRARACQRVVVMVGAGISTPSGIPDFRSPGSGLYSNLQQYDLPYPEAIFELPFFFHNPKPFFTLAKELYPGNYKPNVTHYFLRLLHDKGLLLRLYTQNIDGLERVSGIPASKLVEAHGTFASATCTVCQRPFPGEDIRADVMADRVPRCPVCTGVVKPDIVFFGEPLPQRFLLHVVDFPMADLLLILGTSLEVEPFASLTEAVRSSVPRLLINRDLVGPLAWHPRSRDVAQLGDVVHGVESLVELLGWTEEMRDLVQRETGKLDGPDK
Experiment notes: Fluor de Lys SIRT3 assay
Details: read-out: % inhibition at 50 μM SIRT3
Endpoint label: inhibition at 50 µM (%)
Numeric only. Scale: %

Solved entries:
CCCCCNC(=S)CNC(=O)c1ccccc1Nc1cccc(OCCc2ccccc2)c1 : 2
CCCCCNC(=O)CNC(=O)c1ccccc1Nc1cccc(OCCc2ccccc2)c1 : 2
NC(=O)c1ccccc1Nc1cccc(OCCc2ccccc2)c1 [Compound 6, 3′-phenethyloxy-2-anilinobenzamide, reference compound] : 12
CCCNC(=O)CNC(=O)c1ccccc1Nc1cccc(OCCc2ccccc2)c1 : 3
NC(=O)CNC(=O)c1ccccc1Nc1cccc(OCCc2ccccc2)c1 : 13

For C[C@H](NC(=O)[C@H](CCCCNC(=O)CNC(=O)c1ccccc1Nc1cccc(OCCc2ccccc2)c1)NC(=O)OCc1ccccc1)C(N)=O , what is its reported inhibition at 50 µM?
56

For CN(C)CCCCC(=O)Nc1ccc(NC(=S)NC(=O)c2ccc(C(C)(C)C)cc2)cc1 [Compound 3, tenovin-6, reference compound] , what is its reported inhibition at 50 µM?
9

====

Target desc: UniProtKB Q8IXJ6
Sequence (Q8IXJ6 1-389): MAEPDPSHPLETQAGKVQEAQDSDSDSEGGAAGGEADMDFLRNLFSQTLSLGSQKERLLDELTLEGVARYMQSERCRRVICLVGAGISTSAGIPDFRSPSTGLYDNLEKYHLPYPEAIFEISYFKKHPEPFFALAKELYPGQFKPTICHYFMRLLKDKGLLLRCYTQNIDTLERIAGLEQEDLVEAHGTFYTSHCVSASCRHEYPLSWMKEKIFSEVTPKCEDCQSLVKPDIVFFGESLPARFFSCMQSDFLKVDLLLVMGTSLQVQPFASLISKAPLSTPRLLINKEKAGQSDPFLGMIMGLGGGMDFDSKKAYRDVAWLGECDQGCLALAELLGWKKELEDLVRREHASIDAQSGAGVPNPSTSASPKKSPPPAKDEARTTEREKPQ
Experiment notes: Fluor de Lys SIRT2 assay
Details: read-out: % inhibition at 10 μM SIRT2
Where a SMILES comes first, the peptide text is derived from it. Side-chain parts run from the residue outwards. The star is where a group is joined. Cbz = O=C(OCc1ccccc1)*; Bz = O=C(c1ccccc1)*
Endpoint label: inhibition at 10 µM (%)
Numeric only. Scale: %

NC(=O)c1ccccc1Nc1cccc(OCCc2ccccc2)c1 [Compound 6, 3′-phenethyloxy-2-anilinobenzamide, reference compound] : 90
C[C@H](NC(=O)[C@H](CCCCNC(=O)CNC(=O)c1ccccc1Nc1ccccc1)NC(=O)OCc1ccccc1)C(N)=O : 80
C[C@H](NC(=O)[C@H](CCCCNC(=O)CNC(=O)c1ccccc1)NC(=O)OCc1ccccc1)C(N)=O [Compound 28] (Cbz-Lys([Gly-Bz])-Ala-NH2) : 8

Next:
For N#C/C(=C\c1ccc(-c2cc(Cl)ccc2Cl)o1)C(=O)Nc1cccc2ncccc12 [Compound 7, AGK2, reference compound] , what is its reported inhibition at 10 µM?
45

====

Target desc: SIRT1 (Homo sapiens, UniProt Q96EB6)
Sequence (Q96EB6 whole entry): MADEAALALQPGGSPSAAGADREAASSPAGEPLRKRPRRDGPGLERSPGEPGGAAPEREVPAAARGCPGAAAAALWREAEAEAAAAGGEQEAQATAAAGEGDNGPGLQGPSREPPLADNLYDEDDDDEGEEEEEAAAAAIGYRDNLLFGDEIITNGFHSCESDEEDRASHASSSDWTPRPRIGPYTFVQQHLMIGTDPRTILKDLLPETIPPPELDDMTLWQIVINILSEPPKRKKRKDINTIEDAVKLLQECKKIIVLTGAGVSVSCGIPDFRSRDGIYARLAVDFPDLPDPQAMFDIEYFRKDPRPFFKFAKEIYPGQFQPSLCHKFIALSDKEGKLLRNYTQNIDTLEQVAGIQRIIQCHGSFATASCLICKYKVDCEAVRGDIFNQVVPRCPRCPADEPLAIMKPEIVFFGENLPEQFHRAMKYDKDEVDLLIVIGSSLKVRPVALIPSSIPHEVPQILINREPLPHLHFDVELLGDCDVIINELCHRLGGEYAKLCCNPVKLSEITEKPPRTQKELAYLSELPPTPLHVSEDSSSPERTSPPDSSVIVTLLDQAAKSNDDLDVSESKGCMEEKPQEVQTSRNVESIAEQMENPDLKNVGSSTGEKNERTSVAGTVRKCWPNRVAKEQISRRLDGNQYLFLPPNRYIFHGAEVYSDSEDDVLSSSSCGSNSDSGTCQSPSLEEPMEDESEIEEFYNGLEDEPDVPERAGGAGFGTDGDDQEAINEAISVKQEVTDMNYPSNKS
Experiment notes: Fluor de Lys SIRT1 assay
Details: read-out: % inhibition at 10 μM SIRT1
Where a SMILES comes first, the peptide text is derived from it. Side-chain parts run from the residue outwards. The star is where a group is joined. Cbz = O=C(OCc1ccccc1)*; Bz = O=C(c1ccccc1)*
# Lookup of reported inhibition at 10 µM keyed by entry
Numeric only. Scale: %

Solved entries:
NC(=O)CNC(=O)c1ccccc1Nc1cccc(OCCc2ccccc2)c1 : 10
CCCNC(=S)CNC(=O)c1ccccc1Nc1cccc(OCCc2ccccc2)c1 : 0
O=C(Nc1cccc([N+](=O)[O-])c1)c1cccc(S(=O)(=O)N2CCCCCC2)c1 [Compound 8, AK-1, reference compound] : 6.2
C[C@H](NC(=O)[C@H](CCCCNC(=O)CNC(=O)c1ccccc1Nc1cccc(OCCc2ccccc2)c1)NC(=O)OCc1ccccc1)C(N)=O : 16

For C[C@H](NC(=O)[C@H](CCCCNC(=O)CNC(=O)c1ccccc1Nc1ccccc1)NC(=O)OCc1ccccc1)C(N)=O , what is its reported inhibition at 10 µM?
24

For C[C@H](NC(=O)[C@H](CCCCNC(=O)CNC(=O)c1ccccc1)NC(=O)OCc1ccccc1)C(N)=O [Compound 28] (Cbz-Lys([Gly-Bz])-Ala-NH2) , what is its reported inhibition at 10 µM?
3.5

For CN(C)CCCCC(=O)Nc1ccc(NC(=S)NC(=O)c2ccc(C(C)(C)C)cc2)cc1 [Compound 3, tenovin-6, reference compound] , what is its reported inhibition at 10 µM?
0.9

For NC(=O)c1ccccc1Nc1cccc(OCCc2ccccc2)c1 [Compound 6, 3′-phenethyloxy-2-anilinobenzamide, reference compound] , what is its reported inhibition at 10 µM?
3

For CC(=S)NCCCC[C@H](NC(=O)OCc1ccccc1)C(=O)N[C@@H](C)C(N)=O [UKU 10363, reference compound] , what is its reported inhibition at 10 µM?
97

For NC(=O)C1CCCc2c1[nH]c1ccc(Cl)cc21 (stereo not drawn) [Compound 9, EX-527, reference compound] , what is its reported inhibition at 10 µM?
97

For Cc1cc(C)nc(SCC(=O)Nc2ncc(Cc3cccc4ccccc34)s2)n1 [Compound 5, SirReal2, reference compound] , what is its reported inhibition at 10 µM?
3

For CCCNC(=O)CNC(=O)c1ccccc1Nc1cccc(OCCc2ccccc2)c1 , what is its reported inhibition at 10 µM?
2

For CCCCCNC(=O)CNC(=O)c1ccccc1Nc1cccc(OCCc2ccccc2)c1 , what is its reported inhibition at 10 µM?
4.5

For CCCCCNC(=S)CNC(=O)c1ccccc1Nc1cccc(OCCc2ccccc2)c1 , what is its reported inhibition at 10 µM?
0

For N#C/C(=C\c1ccc(-c2cc(Cl)ccc2Cl)o1)C(=O)Nc1cccc2ncccc12 [Compound 7, AGK2, reference compound] , what is its reported inhibition at 10 µM?
0.9

====

System: MDA-MB-231 cells
Experiment notes: Cell growth assay (AlamarBlue), MDA-MB-231
Assay type: cell-based, human
Details: Homo sapiens, MDA-MB-231, 72 h, 72 h of treatment
Endpoint label: GI50 (µM)
Numeric only. Scale: µM

C[C@H](NC(=O)[C@H](CCCCNC(=O)CNC(=O)c1ccccc1Nc1cccc(OCCc2ccccc2)c1)NC(=O)OCc1ccccc1)C(N)=O : 10.8

Next:
Fill in the recorded GI50 for this compound, with MDA-MB-231 cells as test system: C[C@H](NC(=O)[C@H](CCCCNC(=S)CNC(=O)c1ccccc1Nc1cccc(OCCc2ccccc2)c1)NC(=O)OCc1ccccc1)C(N)=O
8.3

====

Target desc: SIRT5 (Homo sapiens, UniProt Q9NXA8)
Sequence (Q9NXA8 37-310): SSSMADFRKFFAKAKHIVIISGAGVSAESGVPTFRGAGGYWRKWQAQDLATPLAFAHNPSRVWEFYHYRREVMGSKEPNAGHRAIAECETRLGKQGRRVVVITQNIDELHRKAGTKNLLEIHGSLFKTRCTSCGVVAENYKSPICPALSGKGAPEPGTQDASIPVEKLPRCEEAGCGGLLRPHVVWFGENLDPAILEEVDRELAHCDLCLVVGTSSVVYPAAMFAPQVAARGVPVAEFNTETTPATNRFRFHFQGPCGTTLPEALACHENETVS
Experiment notes: Fluor de Lys SIRT5 assay
Details: read-out: % inhibition at 50 μM SIRT5
Where a SMILES comes first, the peptide text is derived from it. Side-chain parts run from the residue outwards. The star is where a group is joined. Cbz = O=C(OCc1ccccc1)*; Bz = O=C(c1ccccc1)*
# Lookup of reported inhibition at 50 µM keyed by entry
Numeric only. Scale: %

Solved entries:
CCCNC(=O)CNC(=O)c1ccccc1Nc1cccc(OCCc2ccccc2)c1 [Compound 18] : 3
CCCNC(=S)CNC(=O)c1ccccc1Nc1cccc(OCCc2ccccc2)c1 [Compound 41] : 3
C[C@H](NC(=O)[C@H](CCCCNC(=S)CNC(=O)c1ccccc1Nc1cccc(OCCc2ccccc2)c1)NC(=O)OCc1ccccc1)C(N)=O [Compound 36] : 10
C[C@H](NC(=O)[C@H](CCCCNC(=O)CNC(=O)c1ccccc1Nc1ccccc1)NC(=O)OCc1ccccc1)C(N)=O [Compound 27] : 3
NC(=O)C1CCCc2c1[nH]c1ccc(Cl)cc21 (stereo not shown) [Compound 9, EX-527, reference compound] : 0
NC(=O)CNC(=O)c1ccccc1Nc1cccc(OCCc2ccccc2)c1 [Compound 17] : 4
C[C@H](NC(=O)[C@H](CCCCNC(=O)CNC(=O)c1ccccc1Nc1cccc(OCCc2ccccc2)c1)NC(=O)OCc1ccccc1)C(N)=O [Compound 26] : 6
C[C@H](NC(=O)[C@H](CCCCNC(=O)CNC(=O)c1ccccc1)NC(=O)OCc1ccccc1)C(N)=O [Compound 28] (Cbz-Lys([Gly-Bz])-Ala-NH2) : 0

For NC(=O)c1ccccc1Nc1cccc(OCCc2ccccc2)c1 [Compound 6, 3′-phenethyloxy-2-anilinobenzamide, reference compound] , what is its reported inhibition at 50 µM?
12

For N#C/C(=C\c1ccc(-c2cc(Cl)ccc2Cl)o1)C(=O)Nc1cccc2ncccc12 [Compound 7, AGK2, reference compound] , what is its reported inhibition at 50 µM?
3

For CCCCCNC(=O)CNC(=O)c1ccccc1Nc1cccc(OCCc2ccccc2)c1 [Compound 19] , what is its reported inhibition at 50 µM?
6

For CN(C)CCCCC(=O)Nc1ccc(NC(=S)NC(=O)c2ccc(C(C)(C)C)cc2)cc1 [Compound 3, tenovin-6, reference compound] , what is its reported inhibition at 50 µM?
2

For CCCCCNC(=S)CNC(=O)c1ccccc1Nc1cccc(OCCc2ccccc2)c1 [Compound 42] , what is its reported inhibition at 50 µM?
3
